Origin of values: the nanobody polyreactivity screen of Harvey et al. (2022)

# assay.overview: yeast display, Sf9 membrane polyspecificity reagent, FACS + sequencing; frameworks hold sequencing errors
test.readout: polyreactivity (PSR sort gate)

Some sequences with known polyreactivity (PSR sort gate) results, for comparison:
QVQLVESGGGLVQAGGSLRLSCAASGSNFQFNAMGWYRQAPGKEREFVAAITSSAGRTYYADSVKGRFTISRDNAKNTVYLQMNSLKPEDSAVYYCGDTFYRRYVDLGYWGQGTQVTVSS = high polyreactivity
QVQLVESGGGLVQAGGSLRLSCAASGRTICRNVMGWYRQAPGKERELVAAISRSGGSTYYADSVKGRFTISRDNAKNTVYLQMNSLKPEVTAVYYCAAYSVGDYYWGQGTQVTVSS = high polyreactivity
QVQLVESGGGLVQAGGRLRLSFAASGLTFWWYAMGWYRQAPGKERELVAAIDSADITNYADSVKGRFTISRDNAKNTVYLQMNSLKPEDTAVYYCAAGRDYYVVNYVLFLFDYWGQGTQVTVSS = high polyreactivity
QVQLVESGGGLVQAGGSLRLSCAASGRTFSYYTMGWSRQAPGKERQLVARISNRGTNTYYADSVKGRFTISRDNAKNTVYLQMNSLIPEDTGVYYCAKYYYTSIVGYDSWGQGTQVTVSS = low polyreactivity
QVQLVESGGGLVQAGGSLRLSCAASGRIIAGYTMGWYRQAPGKERELVAAIRSSGRTHYADSVKGRFTISRDNAKNTVYLQMNSLKPEDTAVYYCAARWTYTFAYRFDYWGQGTQVTVSS = high polyreactivity

Summary for this sequence, QVQLVESGGRLVQAGGSLRLSCAASGRTFRSYAMGWYRPAPGKEWELVAAIRTSDGITYYADSVKGRFTISRDNAKNTVDLQMNSLQPEDTAVYYCAAENWYKYDYWGQGTQVTVSS : polyreactivity (PSR sort gate) is low polyreactivity

---

# assay.overview: yeast display, Sf9 membrane polyspecificity reagent, FACS + sequencing; frameworks hold sequencing errors
test.readout: polyreactivity (PSR sort gate)

Some sequences with known polyreactivity (PSR sort gate) results, for comparison:
QVQLVESGGGLVQAGGSLRLSCAASGYTFVNYAMGWYRQAPGKEREFVAAISRSGGSTYYADSVKGRFTISRDNAKNTVYLQMNSLKPEDSAVYYCALRGYPPYKYYYWGQGTQVTVSS = high polyreactivity
QVQLVESGGGLVQAGGSLRLSCAASGRTFRAYAMGWYRQAPGKERELVAAIRSGTSTNYADSVKGRFTISRDNAKNTVYLQMNSLKPEDTAVYYCAAEWRKTYRYFTFGYWGQGTQVTVSS = high polyreactivity
QVQLVESGGGLVQAGGSLRLSCAASGSTLDTYAMGWYRQAPGKERELVAGITWSGGSTYYADSVKGRFTISRDNAKNTVYLQMNSLKPEDTAVYYCAAYSPYGPRYDYWGQGTQVTVSS = low polyreactivity
QVQHVESGGGLVQAGGSLRLSCAASGRTFRDYVMGWYRQAPGKETALVAAISTRGASTYYADSVKGRFTISRDNANNTVYLQMNRLKPEDTAVYYCAARSTRRGNEYDYWGQRTQVTVSS = high polyreactivity
QVQLVESGGGLFQAGGSLRLSCAASGRIFYSNAMGWYRQAPGKERELVASISPNSGPTYYADSVKGRFTISRDNAKNTVYLQMNSLKPEVTAVYYCAARGGYYQDGLVTGVAEYGYCGQGTQVTVSS = low polyreactivity
QVQLVESGGGLVQAGVSLRLSCAASGSTFYRKTMGWYIQAPGKERELVAAISSSGGSTYYADSVNGRFTISRDNAKNTVYLQMNSLKPEDTAVYYCADTYSPFDFYYWRQGTQVTVSS = low polyreactivity

Let us examine a further case.
Summary for this sequence, QVQLVESGGGLVQAGGSLRLSCAASGRTFGRNAMGWYRPAPGKERELVATITRRGGSTYYADSVKGRFTISRDNAKNTVYLQMYSLKPEDTAVYYCNAGIWLGSFRQRFYYWGQGTQVTVSS : polyreactivity (PSR sort gate) is high polyreactivity

---

# assay.overview: yeast display, Sf9 membrane polyspecificity reagent, FACS + sequencing; frameworks hold sequencing errors
test.readout: polyreactivity (PSR sort gate)

Some sequences with known polyreactivity (PSR sort gate) results, for comparison:
QVQLVESRRGLVPAGGSLRLSCARCGITVPAYAMGWYRQAPGKERELVASISRRGGSTYYADSVKGRFTISRDNAKNTVYLQINSLKPVDTAVYYCNADIKQRSDRYDYWGQGTQVTVSS = high polyreactivity
QVQLVESGGGLVQAGGSLRLSCAASGIIFGWYAMGWYRPAPGKERELVAGISIGGSTYYADSVKGRFTISRDNANNTVYLQMNSLKPEDTAVYYCAADSYFVLPWSDYWGQGTQVTVSS = high polyreactivity
QVQLVESGGGLVQAGGSLRLSCAASGFIFGGYAMGWYRQAPGKERELVARITRSGGSTYYADSVKGRFTISRDNAKNTVYLQMNSLKPEDTAVYYCNARYGKPAYQYGMDYWGQGTQVTVSS = low polyreactivity
QVQLVESGGGLVQAGGSLRLSCAAYASTLANYALGWYRQSPGKERELVAAINSGGSTYYADSVKGRFTISRDNAKNTVYLQMNSLKPEDTAVYYCAARYASPRYKSKMDYWGQGTQVTVSS = high polyreactivity
QVQLVESGGGLVQAGASLRLSCAASGLIFVSNAMGWYRQAPGKERELVAAISWSGSRTYYADSVKGRFTISRDNAKINVYLHMTSLKPEDTAVFYCNAVRRGLPVVGAYDYWGQGTQVTVSS = high polyreactivity

Summary for this sequence, QVQLVESGGGLVQAGGSLRLSCAASGFTFSRYAMGWYRQAPGKERELVAAISKSTDSTYYADSVKGRFTISRDNAKNTVYLQMNSLKPEDTAVYYCAAVQRYKGLQDDSWGQGTQVTVSS : polyreactivity (PSR sort gate) is high polyreactivity

Summary for this sequence, QVQLVESGGGLVQAGGSLRLSCAASGSTVGLYTMGSYRHAPGKEMELFAAISWSDGSTYYEDSVKGRFTISRDNAKNTVYLQMISLKPEDTAVYYCAAEFLYQQSSWEFDYWGQGTQVTVSS : polyreactivity (PSR sort gate) is low polyreactivity

Summary for this sequence, QVQLVDSGGGLVQAGGSLRLSCAASGSIFVKYAMGWYRQAPGKERELVAAISWRGGSTYYADSVKGRFTISRDNAKNTVYLQMNSLKPEDTAVYYCAKYPGISGYNYWGQGTQVTVSS : polyreactivity (PSR sort gate) is high polyreactivity

Summary for this sequence, QVQLVESGGGLVQAGGSLRLSCAASGYTFKRYAMGWYRQAPGKESDLVASITRRGGSTYYADSVKGRFTISRDNAKNTVNLQMNSLKPEDTAVYDCAKSIPLGYTIYDYWGQGTQVTVSS : polyreactivity (PSR sort gate) is high polyreactivity

Summary for this sequence, QVQLLESGGGLVQAGGSLRLTCAASGFTFDLNAMGWYRQAPGKERELVAAISYSGDDTYYADSVKGRFTISRDNAKNTVYLQMNSLKPEDTAVYYCAADATWTYYQLYDYWGQGNQVTVSS : polyreactivity (PSR sort gate) is low polyreactivity

Summary for this sequence, QVQLVESGGGLVQAGGSLRLSCAASGLTFILNAMGWYRQAPGKEREFVAAISRSGVRTYYADSVKGRFTISRDNAKNTVYLQMNSLKPEDTAVYYCARVAPASGVRWYYYWGQGTQVTVSS : polyreactivity (PSR sort gate) is high polyreactivity

Summary for this sequence, QVQLVESGGGLVQAGGSLRLSCAASGSTIWRNTMGWYRQAPGKERELVADIRNVGSTYYADSVKGLFTISRDNAKNTVYLQMNSLKPEDTAVYYCYARWRFLYDYWGQGTQVTVSS : polyreactivity (PSR sort gate) is high polyreactivity

Summary for this sequence, QVQLVESGGGLVQAGGSLRLSCAASGSTFTAKAMGWYRQAPGKERELVASISARDGSTYADSVKGRFTISRDNAKNTVYLQMNSLKPEDTAVYYCNAAYFHIFPYDYDYWGQGTQVTVSS : polyreactivity (PSR sort gate) is low polyreactivity

Summary for this sequence, QVQLVESGGGLVQAGGSLRLSCAASGRTFPWYAMGWYRQAPGKERELVAAISWTGGSTYYADSVKGRFTISRDNAKNTVYLQMNSLKPEDTAVYYCAASPWYLKYEYWGQGTQVTVSS : polyreactivity (PSR sort gate) is low polyreactivity

Summary for this sequence, QDQLVESGGGLVQAGGSLRLSCAASGSTFYYNAMGLYRQAPGKEREVVARISRSGGSTYADSVKGRFTISRDNAKNTVYLQMNSLKPEDTAVYYCNADAYGTPEFTSYAVRYDYWGQGTQVTVSS : polyreactivity (PSR sort gate) is low polyreactivity

Summary for this sequence, QVQLVESGGGLVQAGGSLRLSCAASGRIFSSYTMGWYRQAPGKERELVAAISWRGGSTYYADSVKGRFTISRDNAKNTVYLQMNSLKPEDTAVYYCAADSRSHPGDYWGQGTQVTVSS : polyreactivity (PSR sort gate) is low polyreactivity

Summary for this sequence, QVQLVESGGCLVQAGGSLRLSCAASGSIFGYYAMGWYRQAPGKERELVAAISYSGGSTYYADSVKGRFTISRDTAKNTVYLQMNSLKPEDTAVYYCNAVTSWAYWRGPRYDYWGQGTQVTVSS : polyreactivity (PSR sort gate) is high polyreactivity

Summary for this sequence, QVQLVDSGGGLVQAVGSLRLSCAASGRTFYANAMGWYRQAPGKERELVAAISSRSGTTHYADSVKGRFTISRDNAKNTVYLQMNSLKPEDTAVYYCNRQKWRLLTMGAHNRQAYDSWGQGTQVSVSS : polyreactivity (PSR sort gate) is low polyreactivity

Summary for this sequence, QVQLVESGGGLVQAGGSLRLSCAASGFTFITNAMGWYRQAPGKERELVAAISSSGGRTYYADSVKGRFTISRDNAKNTVYLQMNSLKPEDTAVYYCNADRSLLYSRKIEYDYWGQGTQVTVSS : polyreactivity (PSR sort gate) is low polyreactivity

Summary for this sequence, QVHLVDSGGGLVQAGGSLRLSCAASGFTYYAMGWYRQAPGKERELVAAITRSGGSTYYADSVKGRFTISRDNAKNSVYLQMKSLKPEDTAVYYCAASGKALKYTARYGSWGQGTQVNVSS : polyreactivity (PSR sort gate) is high polyreactivity

Summary for this sequence, QVQLVESGGGLVQAGGSLRLSCAASGLIFYENAMGWYRQAPGKERELVAAINYDGDSTYYADSVKGRFTISRDNAKNTFYLQLNSLKPEDTAVYYCAADGGWVLFWMDYWGQGTQVTVSS : polyreactivity (PSR sort gate) is low polyreactivity
